target: CK2A1 (CK2α/β) (Homo sapiens, UniProt P68400); test: CK2 kinase assay, CK2A1 (CK2α/β); type: biochemical; conditions: Table A; read-out: CK2A1 (CK2α/β) (IC50)
Sequence (P68400 whole entry, species assumed): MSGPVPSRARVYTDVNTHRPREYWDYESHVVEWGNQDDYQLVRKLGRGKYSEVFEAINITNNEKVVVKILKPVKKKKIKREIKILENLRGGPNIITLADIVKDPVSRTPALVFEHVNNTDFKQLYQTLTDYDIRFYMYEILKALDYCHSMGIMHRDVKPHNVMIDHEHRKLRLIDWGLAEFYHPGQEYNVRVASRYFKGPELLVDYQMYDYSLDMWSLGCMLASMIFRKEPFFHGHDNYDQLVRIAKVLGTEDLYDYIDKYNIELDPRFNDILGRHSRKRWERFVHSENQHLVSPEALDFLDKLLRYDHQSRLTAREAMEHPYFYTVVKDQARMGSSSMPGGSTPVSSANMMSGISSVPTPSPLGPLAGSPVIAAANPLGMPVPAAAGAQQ
Sequence (P67870 whole entry partner, species assumed): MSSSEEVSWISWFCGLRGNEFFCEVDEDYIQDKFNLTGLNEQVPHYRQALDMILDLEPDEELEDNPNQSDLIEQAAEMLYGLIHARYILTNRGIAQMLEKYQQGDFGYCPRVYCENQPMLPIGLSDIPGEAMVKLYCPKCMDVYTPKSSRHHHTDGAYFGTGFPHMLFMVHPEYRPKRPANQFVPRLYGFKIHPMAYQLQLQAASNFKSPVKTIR
pIC50: −log10 of the molar value.
QUANTITY MEASURED: pIC50

COMPOUND | pIC50
CN1CCCN(C2CN(c3cc(C#N)cc(Nc4nc(NC5CC5)c5ncc(C#N)n5n4)c3Cl)C2)CC1 | 9.51
N#Cc1cc(Nc2nc(NC3CC3)c3ncc(C#N)n3n2)c(Cl)c(N2CCN(C3COC3)CC2)c1 | 9.38
CCNc1nc(Nc2cc(C#N)cc(N3CCN4C[C@H](O)C[C@H]4C3)c2Cl)nn2c(C#N)cnc12 (racemic) | 8.60
CC(=O)N1CC(N2CCC(c3cc(C#N)cc(Nc4nc(NC5CC5)c5ncc(C#N)n5n4)c3F)CC2)C1 | 8.32

P. CCNc1nc(Nc2cc(C#N)cc(N3CC[C@@H](NC(=O)OC)[C@H](OCOP(=O)(O)O)C3)c2Cl)nn2c(C#N)cnc12 [Example 345, phosphate]
Q. CN(C)CC(=O)Nc1cc(C#N)cc(Nc2nc(NC3CC3)c3ncc(C#N)n3n2)c1Cl
R. N#Cc1cc(Nc2nc(NC3CC3)c3ncc(C#N)n3n2)c(Cl)c(N2CCN(C3CCCC3F)CC2)c1 (stereo not shown)
Prompt line: Please list these compounds in decreasing order of pIC50. Give the labels in the order requested.
Response line: P, Q, R
(P: 9.10, Q: 8.75, R: 8.10)

These data points were gathered from patent US9273057B2.
